Compiled from multiple publications: Ki readings for Inosine-5'-monophosphate dehydrogenase 1 (Homo sapiens, UniProt P20839).
Criterion: Ki strictly less than 0.5 µM. Met: 1.0. Not met: 0.0.

{"compound": "COc1c(C)c2c(c(O)c1C/C=C(/C)CCCOP(=O)(O)CP(=O)(O)OC[C@@H]1OC(n3cnc4c(N)ncnc43)[C@@H](O)[C@H]1O)C(=O)OC2 (stereo not given in full)", "test target": "Inosine-5'-monophosphate dehydrogenase 1 (Homo sapiens, UniProt P20839)", "label value": 1.0}
{"compound": "COc1c(C)c2c(c(O)c1CCOP(=O)(O)CP(=O)(O)OCCc1c(O)c3c(c(C)c1OC)COC3=O)C(=O)OC2", "test target": "Inosine-5'-monophosphate dehydrogenase 1 (Homo sapiens, UniProt P20839)", "label value": 0.0}
{"compound": "NC(=O)c1csc([C@@H]2O[C@H](COP(=O)(O)OP(=O)(O)OC[C@H]3O[C@@H](n4cnc5c(N)nc(NCCc6ccccc6)nc54)[C@H](O)[C@@H]3O)[C@@H](O)[C@H]2O)n1", "test target": "Inosine-5'-monophosphate dehydrogenase 1 (Homo sapiens, UniProt P20839)", "label value": 1.0}
{"compound": "COc1ccc(C/C=C(\\C)CCC(=O)O)cc1-c1cnco1", "test target": "Inosine-5'-monophosphate dehydrogenase 1 (Homo sapiens, UniProt P20839)", "label value": 0.0}
{"compound": "COc1c(C)c2c(c(O)c1C/C=C(\\C)CCC(=O)N1CCC[C@H]1C(=O)O)C(=O)OC2", "test target": "Inosine-5'-monophosphate dehydrogenase 1 (Homo sapiens, UniProt P20839)", "label value": 0.0}
{"compound": "C#Cc1nc(N)c2ncn([C@@H]3O[C@H](CNS(=O)(=O)CS(=O)(=O)NCCc4c(O)c5c(c(C)c4OC)COC5=O)[C@@H](O)[C@H]3O)c2n1", "test target": "Inosine-5'-monophosphate dehydrogenase 1 (Homo sapiens, UniProt P20839)", "label value": 0.0}
{"compound": "COc1c(C)c2c(c(O)c1CCOP(=O)(O)CP(=O)(O)OC[C@H]1O[C@@H](n3c(Br)nc4c(N)ncnc43)[C@H](O)[C@@H]1O)C(=O)OC2", "test target": "Inosine-5'-monophosphate dehydrogenase 1 (Homo sapiens, UniProt P20839)", "label value": 1.0}
{"compound": "COc1c(C)c2c(c(O)c1CCOP(=O)(O)CP(=O)(O)OC[C@H]1O[C@@H](n3cnc4c(N)nc(-c5ccccc5)nc43)[C@H](O)[C@@H]1O)C(=O)OC2", "test target": "Inosine-5'-monophosphate dehydrogenase 1 (Homo sapiens, UniProt P20839)", "label value": 1.0}
{"compound": "COc1cc(NC(=O)Nc2ccc(/C=C/C(=O)NO)cc2)ccc1-c1cnco1", "test target": "Inosine-5'-monophosphate dehydrogenase 1 (Homo sapiens, UniProt P20839)", "label value": 1.0}
{"compound": "COc1cc(OC)c(-c2cnco2)cc1C/C=C(\\C)CCC(=O)O (stereo in doubt; 3)", "test target": "Inosine-5'-monophosphate dehydrogenase 1 (Homo sapiens, UniProt P20839)", "label value": 0.0}
{"compound": "NC(=O)c1csc([C@@H]2O[C@H](COP(=O)(O)OP(=O)(O)OC[C@H]3O[C@@H](n4cnc5c(N)nc(NCc6ccccc6)nc54)[C@H](O)[C@@H]3O)[C@@H](O)[C@H]2O)n1", "test target": "Inosine-5'-monophosphate dehydrogenase 1 (Homo sapiens, UniProt P20839)", "label value": 1.0}
{"compound": "COc1c(C)c2c(c(O)c1C/C=C(\\C)CCC(=O)NCC(=O)O)C(=O)OC2", "test target": "Inosine-5'-monophosphate dehydrogenase 1 (Homo sapiens, UniProt P20839)", "label value": 0.0}
{"compound": "COc1c(C/C=C(\\C)CCC(=O)O)cc(-c2cnco2)c(OC)c1C", "test target": "Inosine-5'-monophosphate dehydrogenase 1 (Homo sapiens, UniProt P20839)", "label value": 0.0}
{"compound": "COc1c(C)c2c(c(O)c1C/C=C(\\C)CCC(=O)N[C@@H](Cc1ccc(O)cc1)C(=O)O)C(=O)OC2", "test target": "Inosine-5'-monophosphate dehydrogenase 1 (Homo sapiens, UniProt P20839)", "label value": 0.0}
{"compound": "CCc1nc(N)c2ncn([C@@H]3O[C@H](COP(=O)(O)OP(=O)(O)OC[C@H]4O[C@@H](c5nc(C(N)=O)cs5)[C@H](O)[C@@H]4O)[C@@H](O)[C@H]3O)c2n1", "test target": "Inosine-5'-monophosphate dehydrogenase 1 (Homo sapiens, UniProt P20839)", "label value": 1.0}
